# Tested Target: D(1A) dopamine receptor (Rattus norvegicus)
# Sequence (P18901 whole entry): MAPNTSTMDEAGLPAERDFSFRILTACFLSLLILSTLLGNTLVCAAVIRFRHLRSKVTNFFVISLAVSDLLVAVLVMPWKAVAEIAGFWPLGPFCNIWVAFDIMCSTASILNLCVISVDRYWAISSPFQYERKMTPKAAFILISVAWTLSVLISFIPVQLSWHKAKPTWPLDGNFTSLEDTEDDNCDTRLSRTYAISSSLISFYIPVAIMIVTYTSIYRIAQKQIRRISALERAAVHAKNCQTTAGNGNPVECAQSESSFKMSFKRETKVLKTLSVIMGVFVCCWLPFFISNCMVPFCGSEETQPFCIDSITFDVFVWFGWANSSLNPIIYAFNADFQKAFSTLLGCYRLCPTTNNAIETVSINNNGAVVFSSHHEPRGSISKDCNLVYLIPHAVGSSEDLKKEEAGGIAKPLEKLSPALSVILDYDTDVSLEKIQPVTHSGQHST
# Assay Protocol: In vitro antagonist binding affinity was determined by displacing the [3H]-SCH- in rat striatal Dopamine receptor D1
pIC50: −log10 of the molar value.
Reported Endpoint: pIC50

Find the measured pIC50: item C1=C(c2ccccc2)CC[C@@H](CCN2CCN(c3ccccn3)CC2)C1 , target or system D(1A) dopamine receptor (Rattus norvegicus).
< 5.22

Find the measured pIC50: item CN1CCC=C2c3nc(N)sc3CCC21 (racemic) , target or system D(1A) dopamine receptor (Rattus norvegicus).
< 5.00

Find the measured pIC50: item C1=C(c2ccccc2)CC[C@H](CCN2CCN(c3ccccn3)CC2)C1 , target or system D(1A) dopamine receptor (Rattus norvegicus).
< 5.22

Find the measured pIC50: item C1=C(c2ccccc2)CCC(CCN2CCN(c3ccccn3)CC2)C1 (racemic) , target or system D(1A) dopamine receptor (Rattus norvegicus).
< 5.22

---

# Tested Target: D(2) dopamine receptor (Rattus norvegicus, UniProt P61169)
# Sequence (P61169 whole entry): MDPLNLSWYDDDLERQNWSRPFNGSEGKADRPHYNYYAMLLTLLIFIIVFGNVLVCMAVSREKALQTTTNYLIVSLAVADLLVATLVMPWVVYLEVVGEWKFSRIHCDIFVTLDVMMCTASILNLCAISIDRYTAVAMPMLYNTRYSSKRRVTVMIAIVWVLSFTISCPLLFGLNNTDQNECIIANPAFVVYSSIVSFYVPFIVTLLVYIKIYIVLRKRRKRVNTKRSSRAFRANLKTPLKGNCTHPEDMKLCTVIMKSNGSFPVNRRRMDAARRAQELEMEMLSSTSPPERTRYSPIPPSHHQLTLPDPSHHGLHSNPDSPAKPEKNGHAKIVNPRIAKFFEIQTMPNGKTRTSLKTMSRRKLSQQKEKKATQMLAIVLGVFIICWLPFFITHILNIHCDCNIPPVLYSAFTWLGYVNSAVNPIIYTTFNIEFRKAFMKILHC
# Assay Protocol: Displacement of [3H]spiperone from rat striatal Dopamine receptor D2
Quick reference for IC50 among some compounds
Enter your answer as a number in nM; do not include the unit.

Consider the following illustrative entries.
I have this compound here, C1=C(c2ccccc2)CCC(N2CCN(c3ccccn3)CC2)C1 (stereo unspecified) , and I need its recorded IC50.
600

I have this compound here, C1=C(c2cccs2)CCC(CCN2CCN(c3ccccn3)CC2)C1 (stereo unspecified) , and I need its recorded IC50.
436

I have this compound here, C1=C(c2ccccn2)CCC(N2CCN(c3ccccn3)CC2)C1 (stereo unspecified) , and I need its recorded IC50.
1180

I have this compound here, C1=C(c2ccccc2)CCC(CCN2CCN(c3ccccn3)CC2)C1 (racemic) , and I need its recorded IC50.
412

I have this compound here, CN1CCC=C2c3nc(N)sc3CCC21 (racemic) , and I need its recorded IC50.
2920

New cases:
I have this compound here, C1=C(c2ccccc2)CC[C@H](CCN2CCN(c3ccccn3)CC2)C1 , and I need its recorded IC50.
704

I have this compound here, C1=C(c2ccccc2)CC[C@@H](CCN2CCN(c3ccccn3)CC2)C1 , and I need its recorded IC50.
545

I have this compound here, C1=C(c2cccs2)CCC(N2CCN(c3ccccn3)CC2)C1 (stereo unspecified) , and I need its recorded IC50.
352

I have this compound here, C1=C(c2ccccn2)CCC(CCN2CCN(c3ccccn3)CC2)C1 (stereo unspecified) , and I need its recorded IC50.
128

I have this compound here, C1=C(c2cccs2)CCC(CN2CCN(c3ccccn3)CC2)C1 (stereo unspecified) , and I need its recorded IC50.
2430

---

# Tested Target: D(2) dopamine receptor (Rattus norvegicus, UniProt P61169)
# Assay Protocol: In vitro agonist binding affinity was determined by displacing the [3H]N-propylnorapomorphine ([3H]NPA) in rat striatal Dopamine receptor D2
Reported Endpoint: IC50 (nM)
Enter your answer as a number in nM; do not include the unit.

I have this molecule here, C1=C(c2ccccc2)CC[C@@H](CCN2CCN(c3ccccn3)CC2)C1 , and I need its recorded IC50.
64

I have this molecule here, CN1CCC=C2c3nc(N)sc3CCC21 (racemic) , and I need its recorded IC50.
202

New cases:
I have this molecule here, C1=C(c2ccccc2)CC[C@H](CCN2CCN(c3ccccn3)CC2)C1 , and I need its recorded IC50.
82

I have this molecule here, C1=C(c2ccccc2)CCC(CCN2CCN(c3ccccn3)CC2)C1 (racemic) , and I need its recorded IC50.
88
